Data provenance is ChEMBL document CHEMBL5291721.

# tgt: D(1A) dopamine receptor (Homo sapiens, UniProt P21728)
# Sequence (P21728 whole entry): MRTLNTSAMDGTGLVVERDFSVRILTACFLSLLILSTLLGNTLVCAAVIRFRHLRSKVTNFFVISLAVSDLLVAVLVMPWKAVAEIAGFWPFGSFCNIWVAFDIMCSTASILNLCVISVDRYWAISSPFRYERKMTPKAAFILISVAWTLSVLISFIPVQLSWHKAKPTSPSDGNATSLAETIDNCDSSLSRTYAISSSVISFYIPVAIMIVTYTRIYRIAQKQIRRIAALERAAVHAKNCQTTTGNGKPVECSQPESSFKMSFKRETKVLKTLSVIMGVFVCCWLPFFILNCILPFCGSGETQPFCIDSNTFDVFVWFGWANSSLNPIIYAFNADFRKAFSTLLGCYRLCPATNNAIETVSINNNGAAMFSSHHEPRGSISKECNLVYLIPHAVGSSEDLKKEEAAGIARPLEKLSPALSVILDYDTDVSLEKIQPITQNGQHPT
# Type: functional, cell-based
quantity: AC50

>>> df
                                   molecule  quantity  reportedvalue
0                   CC(C)Cc1ccc(CC(=O)O)cc1      AC50        > 30 µM
1  CCCCCCC(C)(C)c1cc(O)c2c(c1)OC(C)(C)C1CCC(=O)CC21 (stereo not drawn)      AC50        > 30 µM
2                      CC(C)NNC(=O)c1ccncc1      AC50        > 30 µM
3  COC(=O)[C@@H]1CC2=CC(=O)CC[C@]2(C)[C@@]23O[C@@H]2C[C@@]2(C)[C@@H](CC[C@@]24CCC(=O)O4)[C@H]13      AC50        > 30 µM

Exercise: Give the reported AC50 for this molecule. CCN1CCC[C@H]1CNC(=O)c1cc(S(N)(=O)=O)ccc1OC [LEVOSULPIRIDE]
Key: > 30 µM

Exercise: Name the recorded AC50 of the molecule listed here: C[N+](C)(C)CCOC(N)=O
Key: > 30 µM

Exercise: Find the measured AC50 of CO/N=C(\C(=O)N[C@@H]1C(=O)N2C(C(=O)[O-])=C(C[N+]3(C)CCCC3)CS[C@H]12)c1csc(N)n1 and report it.
Key: > 300 µM

Exercise: Specify AC50 for CC(=O)c1ccc2c(c1)N(CCCN1CCN(CCO)CC1)c1ccccc1S2 and stop.
Key: 1.11 µM

====

// endpoint AC50 / system Gamma-aminobutyric acid receptor subunit alpha-1 (Rattus norvegicus, UniProt P62813); also: assay procedure not described here

The examples below pair each entry with its known result.
In [3]: df
Out[3]:
                                   molecule  quantity  reportedvalue
0  CC(=O)N(CC(O)CO)c1c(I)c(C(=O)NCC(O)CO)c(I)c(C(=O)NCC(O)CO)c1I (stereo not given) [IOHEXOL]      AC50        > 10 µM
1              C[N+](C)(C)CC(=O)O [BETAINE]      AC50        > 30 µM
2  C=C1C[C@@H]2[C@H](CC[C@]3(C)C(=O)CC[C@@H]23)[C@@]2(C)C=CC(=O)C=C12 [EXEMESTANE]      AC50        > 10 µM

Exercise: Give reported AC50 value for NC[C@H]1CC[C@H](C(=O)O)CC1 [TRANEXAMIC ACID]
Key: > 10 µM

Exercise: Give the value of AC50 reported for the following: CC(C(O)c1ccc(O)cc1)N1CCC(Cc2ccccc2)CC1 (stereo not given) [IFENPRODIL]
Key: > 30 µM

Exercise: Identify the reported AC50 for the following entry. O=C(O)CCCc1ccccc1 [PHENYLBUTANOIC ACID]
Key: > 30 µM

Exercise: Name the recorded AC50 of the molecule listed here: CCCCN1CCCCC1C(=O)Nc1c(C)cccc1C (stereo not given) [BUPIVACAINE]
Key: > 30 µM

Exercise: # return recorded AC50 for input CC(C)(N)Cc1ccc(Cl)cc1 [CHLORPHENTERMINE]
Key: > 10 µM

Exercise: Identify measured AC50 associated with CCc1ccc(CCOc2ccc(CC3SC(=O)NC3=O)cc2)nc1 (stereo not given) [PIOGLITAZONE]
Key: > 10 µM

Exercise: Item O=C(Nc1ccccc1)OCC(CN1CCCCC1)OC(=O)Nc1ccccc1 (stereo not given) [DIPERODON] : provide AC50
Key: > 10 µM
